- run description: in vivo
- details: female, WAG/RijCmcr, rat, plasma, urine, Model-based estimate of terminal half-life, nonirradiated rats

- smiles repr: "NCCCC[C@H](N[C@@H](CCc1ccccc1)C(=O)O)C(=O)N1CCC[C@H]1C(=O)O"
  unit of measure: "h"
  half-life: 65

---

- run description: in vivo
- details: female, WAG/RijCmcr, rat, plasma, urine
test readout: CL renal (mL/min)

- smiles repr: "NCCCC[C@H](N[C@@H](CCc1ccccc1)C(=O)O)C(=O)N1CCC[C@H]1C(=O)O"
  observed value: 0.15

---

- run description: in vivo
- details: female, WAG/RijCmcr, rat, plasma, urine, Model-based circulating half-life, non-irradiated rats

- smiles repr: "NCCCC[C@H](N[C@@H](CCc1ccccc1)C(=O)O)C(=O)N1CCC[C@H]1C(=O)O"
  unit of measure: "h"
  half-life: 2.8
